molecular target: human FXR (Homo sapiens); assay: transient human FXR/Gal4-luciferase reporter assay (HLE GAL-FXR); details: FXR EC50 (nM), Gal4-hFXR fusion reporter, HEK293 cells; Table 1
Sequence (Q96RI1 262-486 limits assumed): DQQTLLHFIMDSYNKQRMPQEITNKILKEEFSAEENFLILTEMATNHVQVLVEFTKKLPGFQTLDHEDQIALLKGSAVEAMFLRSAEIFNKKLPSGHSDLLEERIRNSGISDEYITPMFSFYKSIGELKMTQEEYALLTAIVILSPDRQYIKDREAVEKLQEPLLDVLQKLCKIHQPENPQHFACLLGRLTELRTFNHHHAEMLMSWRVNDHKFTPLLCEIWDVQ
measure: EC50 (nM)

compound: O=C(O)c1cc(OC2CC(F)(F)C2)c2cc(N3CC(/C=C/c4c(-c5ccccc5C(F)(F)F)noc4C4CC4)C3)ccc2n1
measured_number: 228

compound: O=C(O)c1ccc(N2CC3C(/C=C/c4c(-c5c(Cl)cccc5Cl)noc4C4CC4)C3C2)nc1 (centres unmarked)
measured_number: 424

compound: O=C(O)c1cc(O[C@H]2C[C@H](F)C2)c2cc(N3CC(/C=C/c4c(-c5ccccc5C(F)(F)F)noc4C4CC4)C3)ccc2n1
measured_number: 159

compound: O=C(O)c1cc(F)cc(-c2ccc(N3CC(/C=C/c4c(-c5ccccc5C(F)(F)F)noc4C4CC4)C3)nc2)c1
measured_number: 14

compound: O=C(O)c1cc(OC2CCOC2)c2cc(N3CC4C(/C=C/c5c(-c6c(Cl)cncc6Cl)noc5C5CC5)C4C3)ccc2n1 (centres unmarked)
measured_number: 18

[A] O=C(O)c1cc(O[C@H]2C[C@@H](F)C2)c2cc(N3CC4C(/C=C/c5c(-c6ccccc6C(F)(F)F)noc5C5CC5)C4C3)ccc2n1 (some centres unmarked)
[B] COc1cc(C(=O)O)nc2ccc(N3CC4C(/C=C/c5c(-c6ccccc6C(F)(F)F)noc5C5CC5)C4C3)cc12 (centres unmarked)
[C] O=C(O)c1ccc2nc(N3CC4C(/C=C/c5c(-c6c(Cl)cccc6Cl)noc5C5CC5)C4C3)sc2c1 (centres unmarked)
[D] COc1cc(C(=O)O)nc2c(F)cc(N3CC(/C=C/c4c(-c5ccccc5C(F)(F)F)noc4C4CC4)C3)cc12
## Input # desc sort on EC50 across 4 compounds In plain terms: list the labels in the order you were asked to.
## Output D, C, B, A

[A] COc1cc(C(=O)O)cc2sc(N3CC4C(/C=C/c5c(-c6c(Cl)cncc6Cl)noc5C5CC5)C4C3)nc12 (centres unmarked)
[B] COc1cc(C(=O)O)nc2ccc(N3CC(/C=C/c4c(-c5cccnc5C(F)(F)F)noc4C4CC4)C3)cc12
[C] O=C(O)c1cc2ccc(N3CCC(/C=C/c4c(-c5ccccc5OC(F)(F)F)noc4C4CC4)CC3)cc2nn1
## Input Ascending sort, EC50. In plain terms: list the labels in the order you were asked to.
## Output A, B, C
(A: 131 nM, B: 223 nM, C: 1210 nM)

[a] O=C(O)c1cc(F)c2nc(N3CCC(/C=C/c4c(-c5ccccc5C(F)(F)F)noc4C4CC4)CC3)sc2c1
[b] O=C(O)c1cc(-c2ccc(N3CC(/C=C/c4c(-c5c(Cl)cncc5Cl)noc4C4CC4)C3)nc2)cc(C(F)(F)F)c1
## Input Between these two entries, a and b , state which has the higher EC50. To answer, give the label that identifies your chosen option.
## Output b
